Reference for the values: patent US20140178935A1

Catalogue of log10 koff readings, one per entry.
- target-system: T1, recombinant human HGF (R&D Systems, Catalog No. 294-HGN-025) (human, UniProt P14210 32-728)
- T1 construct: Mature HGF is a disulfide-linked heterodimer of alpha and beta chain cut from one precursor; also called rhHGF (R&D Systems); rhHGF
- T1 sequence (P14210 32-728 limits assumed): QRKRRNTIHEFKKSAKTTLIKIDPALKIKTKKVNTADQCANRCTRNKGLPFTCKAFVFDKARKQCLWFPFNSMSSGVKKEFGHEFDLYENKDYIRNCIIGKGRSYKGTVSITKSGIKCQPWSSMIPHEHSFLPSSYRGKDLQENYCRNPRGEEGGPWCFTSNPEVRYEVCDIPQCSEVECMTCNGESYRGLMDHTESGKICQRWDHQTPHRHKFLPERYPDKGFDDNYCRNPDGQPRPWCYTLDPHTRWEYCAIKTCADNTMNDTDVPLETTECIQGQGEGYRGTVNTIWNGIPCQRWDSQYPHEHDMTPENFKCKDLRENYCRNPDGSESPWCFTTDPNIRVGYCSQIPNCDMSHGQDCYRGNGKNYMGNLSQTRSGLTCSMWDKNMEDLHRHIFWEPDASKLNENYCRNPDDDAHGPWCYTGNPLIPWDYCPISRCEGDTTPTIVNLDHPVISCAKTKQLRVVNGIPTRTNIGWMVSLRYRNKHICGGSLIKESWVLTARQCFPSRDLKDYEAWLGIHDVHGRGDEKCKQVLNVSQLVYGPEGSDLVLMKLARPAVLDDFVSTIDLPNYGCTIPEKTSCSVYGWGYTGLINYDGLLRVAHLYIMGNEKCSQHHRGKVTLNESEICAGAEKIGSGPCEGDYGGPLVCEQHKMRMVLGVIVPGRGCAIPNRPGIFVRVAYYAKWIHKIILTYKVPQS
- experimental-protocol: SPR (BIAcore T100), antibody captured on mouse anti-human immunoglobulin CM4 chip, HGF 1.88, 3.75 and 7.5 nM injected, 25 C
# values: log10(koff), units s⁻¹

- binder: "Kappa Hu2B8_Kv3-15.1 / Heavy Chimeric 2B8 (antibody, human IgG1, kappa, V domains shown, also called Chimeric 2B8 IgG1 heavy chain with Hu2B8 Kv3-15.1 + Kappa Constant light chain) VH: QVQLQQPGAELVKPGTSVKLSCKASGYTFTTYWMHWVNQRPGQGLEWIGEINPTNGHTNYNEKFKSKATLTVDKSSSTAYMQLSSLTSEDSAVYYCARNYVGSIFDYWGQGTTLTVSS VL: EIVMTQSPATLSVSPGERATLSCKASENVVSYVSWYQQKPGQAPRLLIYGASNRNTGIPARFSGSGSGTEFTLTISSLQSEDFAVYYCGQSYNYPYTFGQGTKLEIKR"
  recorded-metric: "log10 koff"
  result-number: -4.77
- binder: "Kappa Hu2B8_Kv1-39.1 / Heavy Hu2B8_Hv1-f.1 (antibody, human IgG1, kappa, V domains shown, also called Hu2B8 Hv1-f.1 + IgG1 Constant heavy chain with Hu2B8 Kv1-39.1 + Kappa Constant light chain) VH: EVQLVQSGAEVKKPGATVKISCKVSGYTFTTYWMHWVQQAPGKGLEWMGEINPTNGHTNYNEKFQGRVTITADTSTDTAYMELSSLRSEDTAVYYCATNYVGSIFDYWGQGTLVTVSS VL: DIQMTQSPSSLSASVGDRVTITCKASENVVSYVSWYQQKPGKAPKLLIYGASNRNTGVPSRFSGSGSGTDFTLTISSLQPEDFATYYCGQSYNYPYTFGQGTKLEIKR"
  recorded-metric: "log10 koff"
  result-number: -2.68
- binder: "Kappa Hu2B8_Kv3-15.1 / Heavy Hu2B8_Hv5-a.1 (antibody, human IgG1, kappa, V domains shown, also called Hu2B8 Hv5-a.1 + IgG1 Constant heavy chain with Hu2B8 Kv3-15.1 + Kappa Constant light chain) VH: EVQLVQSGAEVKKPGESLRISCKGSGYSFTTYWMHWVRQMPGKGLEWMGEINPTNGHTNYNPSFQGHVTISADKSISTAYLQWSSLKASDTAMYYCARNYVGSIFDYWGQGTLVTVSS VL: EIVMTQSPATLSVSPGERATLSCKASENVVSYVSWYQQKPGQAPRLLIYGASNRNTGIPARFSGSGSGTEFTLTISSLQSEDFAVYYCGQSYNYPYTFGQGTKLEIKR"
  recorded-metric: "log10 koff"
  result-number: -4.23
- binder: "Kappa Hu2B8_Kv1-39.1 / Heavy Hu2B8_Hv5-a.1 (antibody, human IgG1, kappa, V domains shown, also called Hu2B8 Hv5-a.1 + IgG1 Constant heavy chain with Hu2B8 Kv1-39.1 + Kappa Constant light chain) VH: EVQLVQSGAEVKKPGESLRISCKGSGYSFTTYWMHWVRQMPGKGLEWMGEINPTNGHTNYNPSFQGHVTISADKSISTAYLQWSSLKASDTAMYYCARNYVGSIFDYWGQGTLVTVSS VL: DIQMTQSPSSLSASVGDRVTITCKASENVVSYVSWYQQKPGKAPKLLIYGASNRNTGVPSRFSGSGSGTDFTLTISSLQPEDFATYYCGQSYNYPYTFGQGTKLEIKR"
  recorded-metric: "log10 koff"
  result-number: -4.42

Turning to the following binder.
Query :: What value of log10 koff has been recorded for this entry: Kappa Chimeric 2B8 / Heavy Hu2B8_Hv1-f.1 (antibody, human IgG1, kappa, V domains shown, also called Hu2B8 Hv1-f.1 + IgG1 Constant heavy chain with Chimeric 2B8 Kappa light chain) VH: EVQLVQSGAEVKKPGATVKISCKVSGYTFTTYWMHWVQQAPGKGLEWMGEINPTNGHTNYNEKFQGRVTITADTSTDTAYMELSSLRSEDTAVYYCATNYVGSIFDYWGQGTLVTVSS VL: NIVMTQSPKSMSMSVGERVTLSCKASENVVSYVSWYQQKPAQSPKLLIYGASNRNTGVPDRFTGSGSATDFTLTISSVRAEDLADYHCGQSYNYPYTFGGGTRLEIKR
Result :: -2.80
